For each entry below, report its Velvetleaf plant response rating value.
- System: velvetleaf
- Assay: Test C preemergence
- Format: in vivo, Abutilon theophrasti
- Condition details: 62 g ai/ha, preemergence; scale 0 (no effect) to 100 (complete control)
Give bare numbers.

| Entry smiles | Velvetleaf plant response rating |
| --- | --- |
| FC(F)(F)c1cnn(-c2c(Cl)cccc2Oc2ncc(Cl)cn2)c1 | 100 |

Each compound below has a recorded value; state its Velvetleaf plant response rating.
1. N#Cc1cnn(-c2c(C#N)cccc2Oc2ncc(F)cn2)c1
2. FCc1cccc(Oc2ncc(F)cn2)c1-n1cc(C(F)(F)F)cn1
3. CCCOc1cnn(-c2c(C#N)cccc2Oc2ncc(Cl)cn2)c1
4. FCc1cn(-c2c(F)cccc2Oc2ncc(Cl)cn2)nn1

**Result**
90
100
60
100

* * *

- Test system: galium
- Assay: Test A postemergence
- Assay type: in vivo, Galium aparine
- Condition details: 125 g ai/ha, 0 to 100 scale where 0 is no effect and 100 is complete control
Readout: Plant response rating, Galium
One number for each entry.

Please review the entries below; each comes with its answer.
| Entry smiles | Assay system | Plant response rating, Galium |
| --- | --- | --- |
| CCOc1cn(-c2c(Br)cccc2Oc2ncc(Cl)cn2)nn1 | galium | 100 |
| CC(C)Oc1cnn(-c2c(Cl)cccc2Oc2ncc(Cl)cn2)c1 | galium | 0 |
| FCc1cccc(Oc2ncc(Cl)cn2)c1-n1cc(C(F)(F)F)cn1 | galium | 100 |
| FCc1cccc(Oc2ncc(Cl)cn2)c1-n1cc(Br)cn1 | galium | 100 |

Each compound below has a recorded value; state its Plant response rating, Galium.
1. Fc1cccc(Oc2ncc(Cl)cn2)c1-n1cc(C2CCCC2)nn1
2. FCc1cccc(Oc2ncc(F)cn2)c1-n1cc(C(F)(F)F)cn1

**Result**
70
90

* * *

- Test system: barnyardgrass
- Assay: Test A postemergence
- Assay type: in vivo, Echinochloa crus-galli
- Condition details: 500 g ai/ha, 0 to 100 scale where 0 is no effect and 100 is complete control
Readout: Plant response rating, Barnyardgrass
Numbers only.

Please review the entries below; each comes with its answer.
| Entry smiles | Readout value |
| --- | --- |
| N#Cc1ccc(Oc2ncc(Cl)cn2)c(-n2cc(Br)cn2)c1 | 10 |
| N#Cc1cnn(-c2c(C#N)cccc2Oc2ncc(F)cn2)c1 | 90 |

Each compound below has a recorded value; state its Plant response rating, Barnyardgrass.
1. CNN=Cc1cccc(Oc2ncc(Cl)cn2)c1-n1cc(Br)cn1
2. CNN=Cc1cccc(Oc2ncc(Cl)cn2)c1-n1cc(Cl)cn1

**Result**
20
0

**Query** Hello, I am looking for reported Plant response rating, Barnyardgrass with barnyardgrass for N#Cc1cccc(Oc2ncc(Cl)cn2)c1-n1cc(-n2ccc(C(F)(F)F)n2)cn1 . Could you help?
**Result** 90

* * *

- Tested on: barnyardgrass
- Assay: Test E preemergence
- Type: in vivo, Echinochloa crus-galli
- Condition details: 31 g ai/ha, preemergence, scale 0 to 100 (0 no effect, 100 complete control)
Readout: Barnyardgrass plant response rating
Give bare numbers.

Please review the entries below; each comes with its answer.
| Entry smiles | Assay system | Readout value |
| --- | --- | --- |
| FC(F)(F)c1cnn(-c2c(Cl)cccc2Oc2ncc(Cl)cn2)c1 | barnyardgrass | 20 |
| N#Cc1cccc(Oc2ncc(Cl)cn2)c1-n1cc(C(F)(F)F)cn1 | barnyardgrass | 40 |
| N#Cc1cnn(-c2c(C#N)cccc2Oc2ncc(F)cn2)c1 | barnyardgrass | 0 |

# input for lookup
**Query** Given FC(F)(F)COc1cnn(-c2ccccc2Oc2ncc(Cl)cn2)c1 , state its recorded Barnyardgrass plant response rating.
**Result** 0
